Origin of values: paper PMC7155171

# procedure-text: HepG2 cytotoxicity screening (CellTiter-Glo)
# experimental-setup: human, uninfected HepG2-A16-CD81 (EGFP) hepatocytes
measure-name: IC50

Previously resolved entries follow.
compound	IC50
COC(=O)c1sc(NCc2ccc(N3CCC(O)CC3)c(F)c2)nc1Cl	17.7 µM
COC1CCN(c2ccc(NC(=O)C3CC3)cc2C(F)(F)F)CC1	> 25 µM
Nc1nc(CCC(=O)N2CCOC(CC3CCCCC3)C2)cs1 (stereo not shown)	> 25 µM
CN1CCOC(C(=O)Nc2ccc3c(c2)nc(C(C)(C)C)n3C)C1 (stereo not shown)	> 25 µM
Cc1ccc(-c2ccc(C3CNCCO3)nc2)cc1 (stereo not shown)	> 50 µM
Cc1noc(NC(=O)c2ccc(Br)s2)n1	> 25 µM

Switching to the query record.
(Q) Can you look up the measured IC50 of COc1ccc2cc(C3CN(C(=O)N(C)C)CCO3)ccc2c1 (stereo not shown) for me?
(A) > 25 µM

* * *

Catalogue of Emax values
# Tested on: P. falciparum Dd2
# procedure-text: SYBR green I asexual blood stage proliferation assay (96 h)
# Type: cell-based, Plasmodium falciparum
# experimental-setup: Plasmodium falciparum, DD2; 11-pt dose response, 96hr; read-out: P. falciparum Sybr Green I ABS 11-pt Reconfirmation Dose Response (96hr): Maximum inhibition (%)
Give the number; % is assumed, so skip it.

compound	tested-target	unit-of-measure	numeric-value
CC(C)(C)c1cn2c(n1)C(CNCc1ccccn1)CCC2 (stereo not drawn)	P. falciparum Dd2	%	87.3

Switching to the query record.
(Q) Can you look up the measured Emax of Cc1ncc(CNCCO)c2cc(C(=O)c3ccc(Br)cc3)oc12 for me?
(A) 63.7

* * *

# tested-target: recombinant firefly luciferase (Photinus pyralis)
# Sequence (P08659 whole entry): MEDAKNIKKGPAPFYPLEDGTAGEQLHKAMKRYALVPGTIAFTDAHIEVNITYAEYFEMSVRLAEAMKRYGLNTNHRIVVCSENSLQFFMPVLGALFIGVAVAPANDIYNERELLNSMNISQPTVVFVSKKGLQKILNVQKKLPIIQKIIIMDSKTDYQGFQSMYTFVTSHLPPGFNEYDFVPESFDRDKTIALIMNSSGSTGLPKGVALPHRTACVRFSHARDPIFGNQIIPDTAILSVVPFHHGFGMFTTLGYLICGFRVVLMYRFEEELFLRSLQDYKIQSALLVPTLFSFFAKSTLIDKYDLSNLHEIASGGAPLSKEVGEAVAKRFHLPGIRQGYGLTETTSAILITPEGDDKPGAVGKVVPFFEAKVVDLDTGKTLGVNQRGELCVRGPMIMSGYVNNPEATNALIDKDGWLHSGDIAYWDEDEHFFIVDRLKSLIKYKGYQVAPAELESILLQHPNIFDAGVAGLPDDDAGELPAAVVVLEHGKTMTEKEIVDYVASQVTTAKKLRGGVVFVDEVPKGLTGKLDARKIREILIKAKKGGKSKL
# procedure-text: biochemical
# experimental-setup: dose response; read-out: rLuc inhibition dose response: IC50
pIC50: −log10 of the molar value.
measure-name: pIC50

Previously resolved entries follow.
compound	pIC50
CSc1ccc(CN2C[C@@H]3CC[C@@](O)(c4ccc(C)cn4)[C@@H]3C2)cc1	< 4.60
CC(Nc1ncnc2c1CCNC2)c1ccc2c(c1)CCCC2 (stereo not shown)	< 4.60

(Q) Request: pIC50, test system recombinant firefly luciferase (Photinus pyralis), entry CN1CCOC(C(=O)Nc2ccc3c(c2)nc(C(C)(C)C)n3C)C1 (stereo not shown)
(A) 4.87

(Q) Request: O=C(c1ccc(Br)o1)N1CCN(Cc2ccc(OC(F)(F)F)cc2)CC1
(A) < 4.60

* * *

Catalogue of IC50 values
# procedure-text: HepG2 cytotoxicity screening (CellTiter-Glo)
# experimental-setup: human, uninfected HepG2-A16-CD81 (EGFP) hepatocytes

Previously resolved entries follow.
molecule	IC50
Cc1nc(C(=O)NC2CCN(CCOc3ccc(Br)cc3)CC2)cs1	> 25 µM
CC(=O)Nc1ncc(S(=O)(=O)Nc2ccc3c(c2)OCCO3)s1	> 25 µM
Cn1cnc2c1CCN(Cc1csc(-c3ccccc3F)n1)C2	> 25 µM

(Q) Can you look up the measured IC50 of c1ccc(-c2ccc(C3CNCCO3)nc2)cc1 (stereo not drawn) for me?
(A) > 25 µM

(Q) Request: Cc1ncsc1C(=O)NC1CCN(Cc2ccc(C(F)(F)F)cc2)CC1
(A) > 50 µM

(Q) Request: O=S(=O)(c1ccc(Cl)s1)N1CCN(Cc2nc(-c3ccco3)cs2)CC1
(A) 22 µM

* * *

# System: P. falciparum Dd2 (PfLuc) line expressing firefly luciferase, asexual blood stage
# procedure-text: microbe, parasite or virus in culture
# Assay type: cell-based, Plasmodium falciparum
# experimental-setup: Plasmodium falciparum, DD2; 11-pt dose response, 96hr; read-out: CDD P. falciparum Luciferase ABS 11-pt Reconfirmation Dose Response (96hr): Maximum inhibition (%)
measure-name: Emax (%)
Give the number; % is assumed, so skip it.

Previously resolved entries follow.
molecule	tested-target	numeric-value
c1ccc(Oc2nccc3occc23)c(CN2CCCCC2)c1	P. falciparum Dd2 (PfLuc) line expressing firefly luciferase, asexual blood stage	78.9
Fc1cccc(CN2C[C@@H]3CN(Cc4ccccn4)C[C@@H]3C2)c1	P. falciparum Dd2 (PfLuc) line expressing firefly luciferase, asexual blood stage	100
Cc1cnn(CCNCc2nccn2Cc2ccccc2)c1	P. falciparum Dd2 (PfLuc) line expressing firefly luciferase, asexual blood stage	95.2
CCN1CC(c2ccccc2)CC2(CCN(Cc3ncc[nH]3)CC2)C1 (stereo not shown)	P. falciparum Dd2 (PfLuc) line expressing firefly luciferase, asexual blood stage	85.5
CC(C)c1n[nH]c(C(=O)Nc2ccccn2)c1Br	P. falciparum Dd2 (PfLuc) line expressing firefly luciferase, asexual blood stage	95.1
Clc1ccc(C2(CNC3=NCCN3)CC2)cc1	P. falciparum Dd2 (PfLuc) line expressing firefly luciferase, asexual blood stage	99.9
NC(=O)c1cccc2nc([C@H]3CCN(Cc4ccccn4)C3)[nH]c12	P. falciparum Dd2 (PfLuc) line expressing firefly luciferase, asexual blood stage	101
CCCNc1cc(-c2c[nH]nc2C2CCN(C(=O)C3CCC3)C2)ccn1 (stereo not shown)	P. falciparum Dd2 (PfLuc) line expressing firefly luciferase, asexual blood stage	97.9

(Q) Can you look up the measured Emax of Cc1cccc(C)c1Nc1noc2c1CN(C(=O)c1cn(C)cn1)CC2 for me?
(A) 101

(Q) Request: Cc1ccc(C2(CN(C)Cc3sccc3C)CCNCC2)nc1
(A) 81.7

* * *

# System: P. falciparum Dd2 (PfLuc) line expressing firefly luciferase, asexual blood stage
# procedure-text: microbe, parasite or virus in culture
# Type: cell-based, Plasmodium falciparum
# experimental-setup: Plasmodium falciparum, DD2, read-out: CDD P. falciparum Luciferase ABS 11-pt Reconfirmation Dose Response (48hr): IC50 (μM); 11-pt dose response, 48hr
measure-name: IC50

compound	IC50
Brc1cccc(C2(CNCc3cc[nH]c3)CCOCC2)c1	1.56 µM
CN(C)CCN(C)C(=O)Cn1cccc2cc(-c3ccc(F)cc3)nc1-2	1.87 µM
CN(Cc1nccs1)c1nc(-c2ccccn2)nc2c1CCNCC2	2.11 µM
c1ccc(C[C@H]2CN(C3CCOCC3)CC[C@H]2OCC2CC2)cc1	> 12.5 µM
c1ccn2c(C3CCCN(c4ncnc5c4CCNC5)C3)nnc2c1 (centres unmarked)	> 1.39 µM
COc1cc(CNCC(O)c2ccc(F)c(F)c2)cc2c1OCO2 (centres unmarked)	2.05 µM
CC(C)CNC(=O)C1(Cc2ccccc2-c2cccs2)CCNC1 (centres unmarked)	> 12.5 µM
COc1ccccc1C1(NCc2c(C)nc3c(C)cccn23)CCCC1	4.35 µM

(Q) Request: IC50, test system P. falciparum Dd2 (PfLuc) line expressing firefly luciferase, asexual blood stage, entry CCOc1ccc(Br)cc1C1CCCN1 (centres unmarked)
(A) 4.88 µM

(Q) Request: CC(C)CN1CCCC1c1ccc(C(=O)Nc2cccnc2)s1 (centres unmarked)
(A) 4.09 µM

(Q) Request: CC(O)CN1CCC(CNCc2cccc(OC(F)(F)F)c2)CC1 (centres unmarked)
(A) > 12.5 µM

(Q) Request: Cc1ccc(CNCc2cccc3cccnc23)c(OC2CCOC2)c1 (centres unmarked)
(A) 3.77 µM

(Q) Request: CN(C)c1nc2c(c(NCc3cc(O)ncn3)n1)CCCC2
(A) 3.75 µM

* * *

# procedure-text: HepG2 cytotoxicity screening (CellTiter-Glo)
# experimental-setup: human, uninfected HepG2-A16-CD81 (EGFP) hepatocytes
inhibition at 2 µM below 5% gives class 0; inhibition at 2 µM at or above it gives class 1.

Example entries and their recorded answers appear below.
compound	class-assignment
CCc1nnc2n1CCN(c1nc(C)cc(N(C)C)n1)C2	class 1
Cn1cnc2c1CCN(Cc1csc(-c3ccccc3F)n1)C2	class 0
Cc1nc(NCc2noc(C3CCCO3)n2)c2sccc2n1 (stereo not drawn)	class 1
CC(C)n1cnnc1C1CCCN(S(=O)(=O)CC2CCCC2)C1 (stereo not drawn)	class 1

(Q) Threshold query (inhibition at 2 µM >= 5%) on Cc1cnc2c(c1NCc1cccnc1)c(=O)n(C)c(=O)n2C
(A) class 1

(Q) Request: CCC1=NC(SCC(=O)c2ccccc2)c2cc(CC)sc2N1 (stereo not drawn)
(A) class 0

(Q) Request: CCCNc1cc(-c2c[nH]nc2C2CCN(C(=O)C3CCC3)C2)ccn1 (stereo not drawn)
(A) class 1

(Q) Request: CC(C(=O)Nc1sccc1C(N)=O)N(C)CCOc1ccccc1 (stereo not drawn)
(A) class 1

(Q) Request: CC(C)(CO)Nc1ccc(-c2nc(-c3ccccc3F)no2)cn1
(A) class 0

* * *

Catalogue of inhibition at 2 µM values
# System: HepG2-A16-CD81 hepatocytes
# procedure-text: cells
# Set-up: Uninfected hepatocyte viability, CellTiter-Glo luminescence
# experimental-setup: sheet CDD Export 1;, cytotoxicity primary screen, read-out: Table S5. Liver stage reconfirmation data / HepG2 Cytotoxicity primary screen (2uM): % Inhibition
Give the number; % is assumed, so skip it.

Previously resolved entries follow.
compound	measure-name	numeric-value
COc1c(C)cnc(CN2CCC(N(C)C(C)C(N)=O)CC2)c1C (stereo not drawn)	inhibition at 2 µM	1.63
CCc1cccc(N2CCC(NC(=O)c3ccco3)CC2)c1	inhibition at 2 µM	4.14
Cc1ccoc1C(=O)NC1CCN(Cc2csc3c(F)cccc23)CC1	inhibition at 2 µM	-2.96

(Q) Request: inhibition at 2 µM, test system HepG2-A16-CD81 hepatocytes, entry Cc1cc(-c2cnc(NCc3cccnc3)nc2C(C)(C)C)on1
(A) -8.43

(Q) Request: COC(=O)c1sc(NCc2ccc(N3CCC(O)CC3)c(F)c2)nc1Cl
(A) 5.85
